Target: cathepsin K (Homo sapiens)
Sequence (P43235 115-329): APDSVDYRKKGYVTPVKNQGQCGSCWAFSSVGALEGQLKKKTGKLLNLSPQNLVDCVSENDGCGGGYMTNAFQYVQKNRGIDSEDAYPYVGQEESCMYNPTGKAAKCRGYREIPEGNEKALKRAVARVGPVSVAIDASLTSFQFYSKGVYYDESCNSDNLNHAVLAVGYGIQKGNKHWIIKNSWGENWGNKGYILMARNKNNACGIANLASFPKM
Experiment: Cathepsin K inhibition (progress curve method, fluorogenic substrate Cbz-Phe-Arg-AMC)
Assay type: biochemical
Conditions: human recombinant enzyme, 100 mM Na acetate pH 5.5
Assay readout: Ki

Entry under test: CC(C)C[C@H](NS(=O)(=O)c1cccc2cccnc12)C(=O)NC1COCC1=O (mixture of isomers) . Its Ki was > 10 µM
